- experiment-summary: Microsomal clearance assay (M)
- measurement-conditions: rat liver microsomes, intrinsic clearance
observed-property: Assay M RLM CI(int)

>>> value_observed("CNC(=O)c1nc(-c2ccc(Cl)c(S(=O)(=O)Nc3cccc(F)c3C)c2)cnc1N [(xi), reference compound]")
"271 µL/min/mg"
>>> value_observed("Cc1ccc(S(=O)(=O)N2CCOCC2)cc1-c1cnc(N)c(C(=O)c2cccnc2)n1 [(ix), reference compound]")
"267 µL/min/mg"
>>> value_observed("Cc1nc(N)ncc1-c1ccc(Cl)c(S(=O)(=O)NCCO)c1 [(xii), reference compound]")
"9 µL/min/mg"

###

- measurement-target: PI 3-kinase gamma (Homo sapiens, UniProt P48736)
- Sequence (P48736 whole entry): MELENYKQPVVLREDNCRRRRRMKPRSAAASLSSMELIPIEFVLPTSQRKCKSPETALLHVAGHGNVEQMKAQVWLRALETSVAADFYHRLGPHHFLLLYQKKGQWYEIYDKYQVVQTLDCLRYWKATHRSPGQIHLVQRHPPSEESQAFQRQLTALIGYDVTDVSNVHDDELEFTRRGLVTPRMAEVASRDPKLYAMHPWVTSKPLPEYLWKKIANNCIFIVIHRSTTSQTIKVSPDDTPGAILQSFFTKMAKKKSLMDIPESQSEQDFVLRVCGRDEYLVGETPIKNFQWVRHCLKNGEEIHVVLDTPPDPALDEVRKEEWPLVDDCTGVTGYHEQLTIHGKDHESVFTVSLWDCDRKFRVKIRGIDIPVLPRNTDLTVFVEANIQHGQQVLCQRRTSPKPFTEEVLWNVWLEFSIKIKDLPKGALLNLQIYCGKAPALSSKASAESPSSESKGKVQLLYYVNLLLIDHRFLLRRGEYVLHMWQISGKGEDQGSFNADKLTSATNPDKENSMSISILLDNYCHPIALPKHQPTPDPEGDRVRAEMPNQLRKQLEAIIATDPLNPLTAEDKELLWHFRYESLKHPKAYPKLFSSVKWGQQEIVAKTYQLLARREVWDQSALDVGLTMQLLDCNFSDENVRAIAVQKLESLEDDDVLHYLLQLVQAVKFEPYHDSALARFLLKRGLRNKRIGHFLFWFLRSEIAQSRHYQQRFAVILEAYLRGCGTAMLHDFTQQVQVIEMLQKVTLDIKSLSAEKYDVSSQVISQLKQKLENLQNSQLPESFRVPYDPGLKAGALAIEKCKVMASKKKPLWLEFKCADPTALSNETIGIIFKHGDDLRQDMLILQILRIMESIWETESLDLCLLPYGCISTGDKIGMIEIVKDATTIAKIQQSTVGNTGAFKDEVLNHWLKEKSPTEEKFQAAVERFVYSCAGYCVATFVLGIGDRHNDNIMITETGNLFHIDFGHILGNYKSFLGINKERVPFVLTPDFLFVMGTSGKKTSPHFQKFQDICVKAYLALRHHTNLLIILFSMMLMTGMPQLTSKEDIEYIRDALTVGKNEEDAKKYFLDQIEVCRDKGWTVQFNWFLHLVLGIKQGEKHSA
- experiment-summary: Cellular U937 AKT assay K2 (HTRF)
- Format: cell-based
- measurement-conditions: U937 cells, K2 format; read-out: Assay K2 PI3Kγ IC50
pIC50: −log10 of the molar value. Structures can show the parent of a compound that is named as a salt.
observed-property: pIC50

>>> value_observed("Cc1ccc(S(=O)(=O)NC[C@H]2COCCN2)cc1-c1cnc(N)c(-c2cn(C)nc2C)n1")
6.93
>>> value_observed("Cc1ccc(S(=O)(=O)NCC2CNCCO2)cc1-c1cnc(N)c(-c2cn(C)nc2C)n1 (stereo not shown)")
6.38
>>> value_observed("Cc1ncc(-c2nc(-c3cc(S(=O)(=O)NC[C@H]4C[C@H](O)C4)ccc3C)cnc2N)s1 [Example 20b]")
7.62
>>> value_observed("Cc1ccc(S(=O)(=O)N2CCC(F)C2)cc1-c1cnc(N)c(-n2cncn2)n1 (stereo not shown)")
7.08
>>> value_observed("Cc1ccc(S(=O)(=O)NC2CC2)cc1-c1cnc(N)c(-n2cncn2)n1")
6.70
>>> value_observed("Cc1ncc(-c2nc(-c3cc(S(=O)(=O)NCC4(CO)CCOCC4)ccc3C)cnc2N)s1")
7.48
>>> value_observed("Cc1ncn(-c2nc(-c3cc(S(=O)(=O)NCC(C)(C)O)ccc3C)cnc2N)n1")
5.63
>>> value_observed("Cc1ccc(S(=O)(=O)N2CC(CO)C2)cc1-c1cnc(N)c(-n2cncn2)n1")
6.49
>>> value_observed("Cc1ccc(S(=O)(=O)NCC2(CO)COC2)cc1-c1cnc(N)c(-c2cn(C)nc2C)n1")
6.70
>>> value_observed("Cc1ccc(S(=O)(=O)NCC2(C)COC2)cc1-c1cnc(N)c(-n2cncn2)n1")
6.50
>>> value_observed("Cc1ccc(S(=O)(=O)N2CC(C)(O)C2)cc1-c1cnc(N)c(-n2cncn2)n1")
6.26
>>> value_observed("Cc1ncc(-c2nc(-c3cc(S(=O)(=O)NCC4(CO)COC4)ccc3C)cnc2N)s1")
7.23
>>> value_observed("Cc1ncc(-c2nc(-c3cc(S(=O)(=O)NC4CCOCC4)ccc3C)cnc2N)s1")
6.31
>>> value_observed("Cc1ccc(S(=O)(=O)NCCN)cc1-c1cnc(N)c(-n2cncn2)n1 [Example 33, trifluoroacetic acid salt]")
6.21
>>> value_observed("Cc1ccc(S(=O)(=O)NCCC(C)(C)O)cc1-c1cnc(N)c(-c2cscn2)n1")
6.79
>>> value_observed("Cc1ncc(-c2nc(-c3cc(S(=O)(=O)NCCCO)c(F)cc3C)cnc2N)s1")
7.62
